# assay text: Human HepG2 cell viability assay in 384 well format
# Format: toxicity, cell-based
# Set-up: dose 125 nL, time 70.5 hour; concentration not given beside the values
# assay setup: HepG2 cells, read-out: Inhibition

{"molecule": "O=C(NCC1(O)CCSC1)c1cccc(-n2cccn2)c1 (stereo not drawn)", "cytotoxicity at 70.5 h, %": -10.4}
{"molecule": "Cc1cc(C)nc(N2CCOC(C)(C(=O)N(C)C)C2)n1 (stereo not drawn)", "cytotoxicity at 70.5 h, %": -4.59}
{"molecule": "Cc1cc(C)cc(Nc2nc(C)cc(=O)n2CC(=O)NC(C)C)c1", "cytotoxicity at 70.5 h, %": -5.12}
{"molecule": "COCCOc1ccc(NC(=O)N2CCCC2c2cc(C)no2)cn1 (stereo not drawn)", "cytotoxicity at 70.5 h, %": -7.2}
{"molecule": "CCN1CC2(CC1=O)CN(Cc1cnn(C)c1)CCN(C(=O)C(C)C)C2 (stereo not drawn)", "cytotoxicity at 70.5 h, %": -4.6}
{"molecule": "CCCn1ccnc1CN1CCC(Oc2ccc(Cl)cc2)(C(=O)O)CC1", "cytotoxicity at 70.5 h, %": -10.4}
{"molecule": "Cc1cc(C2CCCN2C(=O)Nc2cn[nH]c2)on1 (stereo not drawn)", "cytotoxicity at 70.5 h, %": -4.06}
{"molecule": "CO[C@H]1CN(C(=O)c2ccc(C)o2)[C@@H]2CCCO[C@H]12", "cytotoxicity at 70.5 h, %": -0.145}
{"molecule": "Cc1ccc(Cl)cc1N1CCN(CC(=O)NC(C)c2ccco2)CC1 (stereo not drawn)", "cytotoxicity at 70.5 h, %": 1.33}
{"molecule": "CC(NC(=O)CCn1c(=O)oc2ccccc21)c1ccccn1 (stereo not drawn)", "cytotoxicity at 70.5 h, %": -2.59}
{"molecule": "O=C(c1cnc(COc2ccccc2)nc1O)N1CCOCC1", "cytotoxicity at 70.5 h, %": -5.87}
{"molecule": "COc1ccc(F)cc1-c1ccccc1CC1CNCCNC1=O (stereo not drawn)", "cytotoxicity at 70.5 h, %": 2.28}
{"molecule": "CCCN1CCC(N2CCN(c3cc(C)nc(COC)n3)CC2)CC1", "cytotoxicity at 70.5 h, %": 3.64}
{"molecule": "CC(C)n1ncc2cc(NC(=O)N3CCC(N4CCCC4)C3)cnc21 (stereo not drawn)", "cytotoxicity at 70.5 h, %": 1.93}
{"molecule": "Cc1ccc(N2CCCC(NCc3ccc4c(c3)OCCO4)C2)nn1 (stereo not drawn)", "cytotoxicity at 70.5 h, %": 1.38}
{"molecule": "Cc1cccc(C2(CNC(=O)CO)CCCC2)c1", "cytotoxicity at 70.5 h, %": 17.1}
{"molecule": "CSCc1cc(F)ccc1CNCc1ncc[nH]1", "cytotoxicity at 70.5 h, %": -8.53}
{"molecule": "O[C@]12CCNC[C@H]1CN(c1ncccc1Cl)CC2", "cytotoxicity at 70.5 h, %": -16.6}
{"molecule": "CC(=O)N1CCC(Oc2cccc(C#N)c2)CC1", "cytotoxicity at 70.5 h, %": 13.4}
{"molecule": "NC(=O)C(NC(=O)c1ccc(NC2CC2)nc1)c1ccccc1 (stereo not drawn)", "cytotoxicity at 70.5 h, %": -5.49}
{"molecule": "CC(=O)N1CCC(c2nccnc2Nc2cnccn2)CC1", "cytotoxicity at 70.5 h, %": -10.2}
{"molecule": "COc1cccc(-c2n[nH]cc2CNC2CCN(C(C)C)CC2)c1", "cytotoxicity at 70.5 h, %": -0.27}
{"molecule": "CC(C)CN1CCc2[nH]nc(C(=O)N3CCCC3)c2C1", "cytotoxicity at 70.5 h, %": 28.7}
{"molecule": "CC(=O)c1ccc(NC(=O)C(C)Cn2cc(Br)cn2)cc1 (stereo not drawn)", "cytotoxicity at 70.5 h, %": -5.47}
{"molecule": "N#Cc1ccc(S(=O)(=O)NC(=O)c2csc(-c3ccco3)n2)cc1", "cytotoxicity at 70.5 h, %": -2.89}
{"molecule": "Cc1ncc(CN2CCC(c3ccnn3C)CC2)n1-c1ccccc1", "cytotoxicity at 70.5 h, %": 2.82}
{"molecule": "CCCSCC(=O)N1CCCC(c2nccn2Cc2ccncc2)C1 (stereo not drawn)", "cytotoxicity at 70.5 h, %": 25.6}
{"molecule": "Cc1cccc(C(=O)N2CCCN(CCCSCC#N)CC2)c1", "cytotoxicity at 70.5 h, %": -10.7}
{"molecule": "COc1ccc2c(c1)CCCN2Cc1nc(C)c(C)o1", "cytotoxicity at 70.5 h, %": -4.99}
{"molecule": "CCN(Cc1noc(C)n1)C(=O)CC1C(=O)NCCN1CC(C)(C)C (stereo not drawn)", "cytotoxicity at 70.5 h, %": 9.61}
{"molecule": "Cn1cnnc1SCCCNC(=O)Nc1ncccn1", "cytotoxicity at 70.5 h, %": -2.46}
{"molecule": "Cc1cnc(N2CCC[C@@H]3CN(CC(=O)N(C)C)C[C@@H]32)nc1", "cytotoxicity at 70.5 h, %": -6.11}
{"molecule": "Fc1ccc(OC2CCN(CCn3cncn3)CC2)cc1", "cytotoxicity at 70.5 h, %": -9.54}
{"molecule": "CCN(CC)CC(=O)N1CCN(c2nc(C)cc(OC)n2)CC1", "cytotoxicity at 70.5 h, %": -0.607}
{"molecule": "O=C(Nc1nccs1)C1CCN(Cc2cccc3c2OCCO3)CC1", "cytotoxicity at 70.5 h, %": 6.98}
{"molecule": "Cc1cc(C[C@@H]2COC[C@@H]2NC(=O)CN2CCCN(C)CC2)on1", "cytotoxicity at 70.5 h, %": -7.54}
{"molecule": "CN(C)CC1(O)CCCN(C(=O)CCc2nc3cccnc3n2C)C1 (stereo not drawn)", "cytotoxicity at 70.5 h, %": -9.56}
{"molecule": "CCc1nnc2n1CCN(Cc1csc(-c3ccc(C)o3)n1)C2", "cytotoxicity at 70.5 h, %": -33.2}
